Test system: FXR:RXRa (NR concentration 270 nM, RXRa partner concentration 90 nM)
Assay: PBM binding z-score (relative to random genomic background probes); higher = stronger binding; sequences stand for … in GC…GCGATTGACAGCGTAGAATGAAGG
Quick rule for you: PBM binding z-score at 3 or higher means rule met, lower means rule not met.

{"columns": ["biosequence", "class-name"],
 "data": [
  ["TCATATAGGTAATACAGGTGGAAGTCGGCATCTA", "rule not met"],
  ["CGTCCAAGGTGAAAGGTCAGTGAAGAGATGACGG", "rule met"],
  ["TCGAGTAGGATAGTCGGGGCATTCAGCCAACATA", "rule not met"],
  ["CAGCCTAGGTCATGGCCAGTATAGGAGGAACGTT", "rule met"],
  ["ATATGTAGGTTACATCCGGGTCAATCAGGCTATG", "rule not met"],
  ["GCGACTGCGGCAAAGCAGGTTACCATAAGGTTGG", "rule not met"]
]}
